assay: Saturated solubility of the drug in D5W solution under strong shaking; type: physicochemical; details: 5% glucose solution (D5W), saline or isotonic, thermodynamic from solid, shaken 2 minutes, filtered, room temperature 24 hours
measure: solubility at 2 min (µg/mL)
A number alone suffices; assume µg/mL.

Hello, please tell me recorded solubility at 2 min for this one: Cn1c(COP(=O)(NCCBr)NCCBr)cnc1[N+](=O)[O-]
7250

###

experiment: Solubility experiment of TH-302 (saturated solution method, HPLC); type: physicochemical; details: pH 2, simulated gastric fluid, thermodynamic from solid; pH2, HCl solution; read-out: Solubility
measure: solubility (µg/mL)
A number alone suffices; assume µg/mL.

Hello, please tell me recorded solubility for this one: Cn1c(COP(=O)(NCCBr)NCCBr)cnc1[N+](=O)[O-]
6940

###

assay: Solubility experiment of TH-302 (saturated solution method, HPLC); type: physicochemical; details: organic solvent or mixture, thermodynamic from solid; 95% tert-butanol/5% ethanol, volume ratio; commercial TH-302; read-out: Solubility
measure: solubility (µg/mL)
A number alone suffices; assume µg/mL.

Hello, please tell me recorded solubility for this one: Cn1c(COP(=O)(NCCBr)NCCBr)cnc1[N+](=O)[O-]
9980

###

test: Solubility experiment of TH-302 (saturated solution method, HPLC); type: physicochemical; settings: pH 7, aqueous buffer, thermodynamic from solid; pH7, phosphate buffer solution; read-out: Solubility
measure: solubility

Hello, please tell me recorded solubility for this one: Cn1c(COP(=O)(NCCBr)NCCBr)cnc1[N+](=O)[O-] [TH-302]
5870 µg/mL

###

Assay: Solubility experiment of TH-302 (saturated solution method, HPLC)
Type: physicochemical
Details: organic solvent or mixture, thermodynamic from solid; 80% tert-butanol in water, mass ratio; TH-302 synthesized by the applicants; read-out: Solubility
Method: The solubility is measured in an experiment by the saturated solution method; that is, the solid TH-302 was directly charged into the solvent until insoluble matter or turbidity appears. […] For the method for measuring the concentration of TH-302 (mg/ml), please refer to the HPLC method described in the patent WO2008083101A1 owned by Threshold Pharmaceuticals Inc. (see Example 2. An Ethanol Formulation of TH302, for details); and the external standard method was used for quantification.
measure: solubility (mg/mL)
A number alone suffices; assume mg/mL.

Hello, please tell me recorded solubility for this one: Cn1c(COP(=O)(NCCBr)NCCBr)cnc1[N+](=O)[O-]
143

###

experiment: Solubility experiment of TH-302 (saturated solution method, HPLC); assay type: physicochemical; conditions: pH 4, aqueous buffer, thermodynamic from solid; pH4, phthalate buffer solution; read-out: Solubility
measure: solubility
Please state the value followed by its unit.

Hello, please tell me recorded solubility for this one: Cn1c(COP(=O)(NCCBr)NCCBr)cnc1[N+](=O)[O-]
7220 µg/mL

###

test: Solubility experiment of TH-302 (saturated solution method, HPLC); assay type: physicochemical; details: pH 10, aqueous buffer, thermodynamic from solid; pH10, borate buffer solution; read-out: Solubility
measure: solubility
Please state the value followed by its unit.

Hello, please tell me recorded solubility for this one: Cn1c(COP(=O)(NCCBr)NCCBr)cnc1[N+](=O)[O-] [TH-302]
6070 µg/mL

###

test: Solubility experiment of TH-302 (saturated solution method, HPLC); format: physicochemical; conditions: aqueous with cosolvent or surfactant or cyclodextrin, thermodynamic from solid; 1%Tween 80 aqueous solution (volume); read-out: Solubility
measure: solubility (µg/mL)
A number alone suffices; assume µg/mL.

Hello, please tell me recorded solubility for this one: Cn1c(COP(=O)(NCCBr)NCCBr)cnc1[N+](=O)[O-]
7210

Where these numbers come from: patent EP4674418A1
